# assay-system: human AR (Homo sapiens)
# method: Co-transfection assay, AR agonist activity, CV-1 cells
# Type: cell-based
# Design: expressed in transfected cells; host or cells: CV-1 cells (African green monkey kidney fibroblasts), transient transfection with pRShAR
# run-conditions: AR Agonist CV-1 Cells Potency (nM), agonist potency or EC50
EC50 values by entry

molecule: CCN1c2cc3c(C(F)(F)F)cc(=O)[nH]c3cc2C2CCCC21 (racemic)
relation-sign: =
EC50 [nM]: 34
--
molecule: CCCN1c2ccc3[nH]c(=O)cc(C(F)(F)F)c3c2CCC1(C)C
relation-sign: =
EC50 [nM]: 13
--
molecule: CCC1CCOc2cc3c(cc21)c(C(F)(F)F)cc(=O)n3C (racemic)
relation-sign: >
EC50 [nM]: 10000
--
molecule: CCc1[nH]c2c(ccc3[nH]c(=O)cc(C(F)(F)F)c32)c1C
relation-sign: >
EC50 [nM]: 10000
--
molecule: O=c1cc(C(F)(F)F)c2c3c(ccc2[nH]1)N(CC(F)(F)F)C1CCCCC31 (racemic)
relation-sign: =
EC50 [nM]: 4.8
--
molecule: CCC1CCOc2cc3c(cc21)c(C(F)(F)F)c(F)c(=O)n3C (racemic)
relation-sign: >
EC50 [nM]: 10000
--
molecule: CCC1C(C)c2c(ccc3[nH]c(=O)cc(C(F)(F)F)c23)N1CC(F)(F)F (racemic)
relation-sign: =
EC50 [nM]: 4.2
--
molecule: O=c1cc(C(F)(F)F)c2c3c(ccc2[nH]1)N(Cc1ccsc1)C1CCCC31 (racemic)
relation-sign: =
EC50 [nM]: 25
--
molecule: O=c1cc(C(F)(F)F)c2cc3c(cc2[nH]1)c1c(n3CC(F)(F)F)CCC1
relation-sign: >
EC50 [nM]: 10000
--
molecule: CC1CCc2cc3[nH]c(=O)cc(C(F)(F)F)c3cc2N1CC(F)(F)F (stereo not shown)
relation-sign: =
EC50 [nM]: 12
--
molecule: CCC1CCOc2c1ccc1[nH]c(=O)cc(C)c21 (racemic)
relation-sign: =
EC50 [nM]: 2070
--
molecule: O=c1cc(C(F)(F)F)c2c3c(ccc2[nH]1)N(CC(F)(F)F)C1CCCC31 (racemic) [Compound 119]
relation-sign: =
EC50 [nM]: 2.5
--
molecule: O=c1cc(C(F)(F)F)c2c3c(ccc2[nH]1)N(CC(F)(F)F)C1CCCC31 (single isomer, unassigned; (-)) [Compound 179]
relation-sign: =
EC50 [nM]: 1.3
--
molecule: CCCN1c2ccc3[nH]c(=O)cc(C(F)(F)F)c3c2C2CCCC21 (racemic)
relation-sign: =
EC50 [nM]: 38
--
molecule: O=c1cc(C(F)(F)F)c2cc3c(cc2[nH]1)C1CCCC1N3CC(F)(F)F (racemic)
relation-sign: =
EC50 [nM]: 4.5
--
molecule: CC1(C)CCc2c(ccc3[nH]c(=O)cc(C(F)(F)F)c23)N1
relation-sign: =
EC50 [nM]: 183

---

# assay-system: human AR (Homo sapiens, UniProt P10275)
# method: Co-transfection assay, AR agonist activity, CV-1 cells
# Type: cell-based
# Design: expressed in transfected cells; host or cells: CV-1 cells (African green monkey kidney fibroblasts), transient transfection with pRShAR
# run-conditions: percent maximal response relative to reference agonist DHT
Under this convention, rule met denotes AR Agonist CV-1 Cells Efficacy (%) strictly below 70% and rule not met denotes AR Agonist CV-1 Cells Efficacy (%) at or above 70%.

compound: CC1(C)CCc2c(ccc3[nH]c(=O)cc(C(F)(F)F)c23)N1CC(F)(F)F [Compound 110]
label: rule not met
//
compound: O=c1cc(C(F)(F)F)c2c3c(ccc2[nH]1)N(CC(F)(F)F)C1CCCC31 (single isomer, unassigned; (-)) [Compound 179]
label: rule not met
//
compound: C=CCc1c(C)[nH]c2c1ccc1[nH]c(=O)cc(C(F)(F)F)c12 [Compound 173]
label: rule met
//
compound: CCN1c2ccc3[nH]c(=O)cc(C(F)(F)F)c3c2CCC1(C)C [Compound 108]
label: rule met
//
compound: O=c1cc(C(F)(F)F)c2c3c(ccc2[nH]1)N(Cc1ccoc1)C1CCCC31 (racemic) [Compound 126]
label: rule met

---

# assay-system: human AR (Homo sapiens, UniProt P10275)
# Sequence (P10275 1-920): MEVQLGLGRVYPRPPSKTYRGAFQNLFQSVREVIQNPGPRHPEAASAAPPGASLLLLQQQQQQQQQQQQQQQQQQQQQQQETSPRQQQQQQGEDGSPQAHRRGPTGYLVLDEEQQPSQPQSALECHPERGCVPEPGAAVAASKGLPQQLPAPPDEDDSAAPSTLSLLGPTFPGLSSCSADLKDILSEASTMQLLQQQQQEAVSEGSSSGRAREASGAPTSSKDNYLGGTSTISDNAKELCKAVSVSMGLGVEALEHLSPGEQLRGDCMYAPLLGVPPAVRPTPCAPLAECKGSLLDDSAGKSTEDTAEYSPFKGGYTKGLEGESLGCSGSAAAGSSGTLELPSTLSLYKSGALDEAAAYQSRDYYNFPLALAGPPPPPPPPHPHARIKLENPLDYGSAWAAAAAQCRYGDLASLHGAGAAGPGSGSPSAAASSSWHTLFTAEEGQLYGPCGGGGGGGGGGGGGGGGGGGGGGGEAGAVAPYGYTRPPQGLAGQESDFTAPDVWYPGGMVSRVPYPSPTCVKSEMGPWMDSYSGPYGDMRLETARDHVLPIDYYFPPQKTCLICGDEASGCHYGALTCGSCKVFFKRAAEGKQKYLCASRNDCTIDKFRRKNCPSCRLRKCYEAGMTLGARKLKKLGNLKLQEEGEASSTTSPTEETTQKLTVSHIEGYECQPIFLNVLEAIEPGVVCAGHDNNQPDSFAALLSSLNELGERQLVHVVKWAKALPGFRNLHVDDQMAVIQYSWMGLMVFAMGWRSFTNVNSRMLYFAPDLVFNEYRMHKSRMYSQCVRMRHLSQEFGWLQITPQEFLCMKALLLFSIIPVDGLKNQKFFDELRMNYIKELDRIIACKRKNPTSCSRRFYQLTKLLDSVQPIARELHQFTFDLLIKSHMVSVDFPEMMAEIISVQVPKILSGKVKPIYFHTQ
# method: Co-transfection assay, AR antagonist activity in presence of DHT, CV-1 cells
# Assay type: cell-based
# Set-up: expressed in transfected cells; host or cells: CV-1 cells (African green monkey kidney fibroblasts), transient transfection with pRShAR

molecule: CCC1CCOc2c1ccc1[nH]c(=O)cc(C)c21 (racemic) [Compound 215]
relation-sign: =
IC50 (nM): 17

molecule: CC1CC(C)(C)N(CC(F)(F)F)c2ccc3[nH]c(=O)ccc3c21 (stereo not shown) [Compound 182]
relation-sign: =
IC50 (nM): 13

molecule: CCC1C(C)c2c(ccc3[nH]c(=O)ccc23)N1CC(F)(F)F (racemic) [Compound 149]
relation-sign: =
IC50 (nM): 25

molecule: CC1C(c2ccc(N(C)C)cc2)c2c(ccc3[nH]c(=O)cc(C(F)(F)F)c23)N1CC(F)(F)F (racemic) [Compound 137]
relation-sign: >
IC50 (nM): 10000

---

# assay-system: human AR (Homo sapiens)
# Sequence (P10275 1-920): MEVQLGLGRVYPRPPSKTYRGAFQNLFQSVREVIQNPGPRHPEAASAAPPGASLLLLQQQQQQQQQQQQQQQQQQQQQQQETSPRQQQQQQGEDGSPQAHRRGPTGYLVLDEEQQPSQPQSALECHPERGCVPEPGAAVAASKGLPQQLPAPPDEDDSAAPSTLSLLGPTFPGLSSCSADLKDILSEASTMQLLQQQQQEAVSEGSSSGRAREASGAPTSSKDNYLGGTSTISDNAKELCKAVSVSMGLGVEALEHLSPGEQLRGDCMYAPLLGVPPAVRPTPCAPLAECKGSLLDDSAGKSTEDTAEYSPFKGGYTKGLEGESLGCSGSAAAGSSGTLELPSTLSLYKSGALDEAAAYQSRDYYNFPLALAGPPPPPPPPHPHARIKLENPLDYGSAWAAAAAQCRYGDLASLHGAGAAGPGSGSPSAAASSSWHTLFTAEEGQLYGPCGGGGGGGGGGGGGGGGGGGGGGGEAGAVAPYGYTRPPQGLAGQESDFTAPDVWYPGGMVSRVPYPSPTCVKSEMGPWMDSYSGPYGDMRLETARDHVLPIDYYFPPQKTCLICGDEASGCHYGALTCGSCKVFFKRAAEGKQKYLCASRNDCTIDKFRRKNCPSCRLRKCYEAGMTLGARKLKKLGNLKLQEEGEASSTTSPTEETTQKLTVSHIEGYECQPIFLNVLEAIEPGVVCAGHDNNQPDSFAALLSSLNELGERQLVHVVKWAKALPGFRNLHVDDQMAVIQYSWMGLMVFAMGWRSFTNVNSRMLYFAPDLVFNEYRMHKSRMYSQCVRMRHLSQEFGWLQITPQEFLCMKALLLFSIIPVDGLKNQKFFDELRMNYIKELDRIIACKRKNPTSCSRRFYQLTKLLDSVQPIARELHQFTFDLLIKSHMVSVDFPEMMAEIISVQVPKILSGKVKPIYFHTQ
# method: Co-transfection assay, AR agonist activity, CV-1 cells
# Format: cell-based
# Parameters: expressed in transfected cells; host or cells: CV-1 cells (African green monkey kidney fibroblasts), transient transfection with pRShAR
# run-conditions: percent maximal response relative to reference agonist DHT
Under this convention, Criterion met denotes AR Agonist CV-1 Cells Efficacy (%) strictly below 80% and Criterion not met denotes AR Agonist CV-1 Cells Efficacy (%) at or above 80%.

compound: CCC1CCOc2c1ccc1[nH]c(=O)cc(C)c21 (racemic)
label: Criterion met

compound: CCCC1C(CC)c2c(ccc3[nH]c(=O)cc(C(F)(F)F)c23)N1CC(F)(F)F (racemic)
label: Criterion met

compound: CCCN1c2ccc3[nH]c(=O)cc(C(F)(F)F)c3c2C2CCCC21 (racemic)
label: Criterion not met

compound: CC1c2c(ccc3[nH]c(=O)cc(C(F)(F)F)c23)N(CC(F)(F)F)C1C (racemic)
label: Criterion not met

compound: O=c1cc(C(F)(F)F)c2c3c(ccc2[nH]1)N(CC(F)(F)F)C1CCCCC31 (racemic)
label: Criterion met

compound: CCN1c2cc3c(C(F)(F)F)cc(=O)[nH]c3cc2C2CCCC21 (racemic)
label: Criterion met

compound: O=c1cc(C(F)(F)F)c2cc3c(cc2[nH]1)CCCN3CC1CC1
label: Criterion met

compound: O=c1cc(C(F)(F)F)c2c(ccc3c2c2ccccc2n3CC(F)(F)F)[nH]1
label: Criterion met

compound: O=c1cc(C(F)(F)F)c2cc3c(cc2[nH]1)CCCN3CC(F)(F)F
label: Criterion met

compound: CCCN1c2ccc3[nH]c(=O)cc(C(F)(F)F)c3c2CCC1(C)C
label: Criterion not met

compound: CCN1c2ccc3[nH]c(=O)cc(C(F)(F)F)c3c2C2CCCC21 (racemic)
label: Criterion not met
